Measured EC50, listed per entry.
System: Streptococcus sp. 'group A'
Test: Streptococcus pyogenes SK(-)GAS viability under kanamycin – luminescence, BacTiterGlo, confirmation, counter-screen for streptokinase expression inhibitor project, dose response (AID 1900)
Format: functional, organism-based
Active and inactive are the calls of the source.

Take a look at these entries with their results.
Compound	EC50
CCOC(=O)c1cnn(-c2nc3c(C)cccc3s2)c1C(F)(F)F	9.35 µM (active)
O=C(Nc1ccc2c(c1)CCC2)c1cc(S(=O)(=O)Nc2ccc(F)cc2)c(Cl)cc1Cl	3.5 µM (active)
O=C(N/N=C/c1c(O)ccc2ccccc12)c1ccc(Br)o1	0.982 µM (active)
CCN(CC)c1ccc(-n2cc3c(=O)n(C)c(=O)n(C)c3c2)cc1	4.91 µM (active)

If you can, please state the reported EC50 value of OC(COc1ccc2ccccc2c1Br)Cn1cnc(-c2ccccc2)c1 (stereo unspecified) .
6.29 µM (active)

----------
Target: Aminopeptidase N (Plasmodium falciparum FcB1/Columbia, UniProt O96935)
Sequence (O96935 whole entry): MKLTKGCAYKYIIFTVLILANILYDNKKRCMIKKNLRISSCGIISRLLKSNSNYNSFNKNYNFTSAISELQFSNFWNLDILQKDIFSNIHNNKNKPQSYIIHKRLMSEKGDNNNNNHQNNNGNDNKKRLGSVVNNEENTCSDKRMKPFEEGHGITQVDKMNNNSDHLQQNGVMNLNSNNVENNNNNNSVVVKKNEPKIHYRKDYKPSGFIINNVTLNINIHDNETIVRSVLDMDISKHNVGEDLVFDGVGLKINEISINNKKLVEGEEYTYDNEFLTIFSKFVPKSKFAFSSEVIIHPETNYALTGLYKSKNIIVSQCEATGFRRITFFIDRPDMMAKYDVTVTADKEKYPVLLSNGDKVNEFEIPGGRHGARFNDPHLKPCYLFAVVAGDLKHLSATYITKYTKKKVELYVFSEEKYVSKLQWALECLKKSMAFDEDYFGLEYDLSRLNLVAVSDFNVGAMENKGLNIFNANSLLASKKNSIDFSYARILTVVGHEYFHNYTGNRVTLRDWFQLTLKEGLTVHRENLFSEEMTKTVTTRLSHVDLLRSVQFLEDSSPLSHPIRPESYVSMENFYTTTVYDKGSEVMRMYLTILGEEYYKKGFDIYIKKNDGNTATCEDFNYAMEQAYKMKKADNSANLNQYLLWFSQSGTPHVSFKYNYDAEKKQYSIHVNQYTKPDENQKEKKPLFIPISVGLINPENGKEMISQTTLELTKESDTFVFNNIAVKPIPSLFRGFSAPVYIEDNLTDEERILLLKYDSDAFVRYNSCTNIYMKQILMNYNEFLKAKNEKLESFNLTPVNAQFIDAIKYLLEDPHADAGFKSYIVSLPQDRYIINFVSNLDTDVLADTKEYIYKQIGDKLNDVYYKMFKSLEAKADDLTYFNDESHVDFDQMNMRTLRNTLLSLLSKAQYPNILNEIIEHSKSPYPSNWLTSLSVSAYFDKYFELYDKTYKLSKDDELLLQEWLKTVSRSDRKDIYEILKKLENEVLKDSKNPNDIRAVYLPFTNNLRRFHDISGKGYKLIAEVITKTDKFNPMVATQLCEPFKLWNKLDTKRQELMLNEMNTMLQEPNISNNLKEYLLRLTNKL
Assay: malaria alanyl aminopeptidase activity blockers – biochemical, fluorogenic H-Leu-NHMec substrate, 1536-well (AID 1445)
Set-up: species or system Plasmodium falciparum 3D7, 3D7
Active and inactive are the calls of the source.
Endpoint Name: IC50

If you can, please state the reported IC50 value of COC(=O)c1ccc(O)c(Sc2cc(C(=O)OC)ccc2O)c1 .
33.1 µM (active)
